Reported Vdss by item:
System: Mus musculus
protocol.text: Volume of distribution at steady state in mouse at 0.1 mg/kg, iv by cassette dosing assay
condition.details: in vivo
Report the figure in L/kg without appending any unit label.

Supply reported Vdss belonging to this compound: `O=C1NCCN1c1cc(S(=O)(=O)Nc2ccc(F)cc2F)cc2c1N(C(=O)Nc1ccc(C(F)(F)F)cc1)CC2`
0.872

Item `O=C1CCCN1c1cc(S(=O)(=O)Nc2ccc(F)cc2F)cc2c1N(C(=O)Nc1ccc(C(F)(F)F)cc1)CC2` : provide Vdss
0.732

###

protocol.text: 1-Octanol-phosphate buffer partition coefficient, log D of the compound at pH 7.4 by HPLC system
Type: physicochemical
Decision: logD compared against 3; not below it gives Y, below it gives N.

Solved entries:
>  <mol>
CC(=O)Nc1cc(S(=O)(=O)Nc2ccc(F)cc2F)cc2nc(C)n(CCc3ccc(F)cc3)c12

>  <label.class>
N

$$$$
>  <mol>
O=C1OCCN1c1cc(S(=O)(=O)Nc2ccc(F)cc2F)cc2c1N(C(=O)OCc1ccccc1)CC2

>  <label.class>
N

$$$$
>  <mol>
O=C1CCCCN1c1cc(S(=O)(=O)Nc2ccc(F)cc2F)cc2c1N(CCc1ccccc1)CC2

>  <label.class>
Y

$$$$
>  <mol>
O=S(=O)(Nc1ccc(F)cc1F)c1ccc2c(c1)CCN2CCc1ccccc1

>  <label.class>
Y

$$$$

// switching to the query compound
Textbook exercise: given the entry `O=C1NCCCN1c1cc(S(=O)(=O)Nc2ccc(F)cc2F)cc2c1N(C(=O)OCc1ccccc1)CC2` , state whether its logD is greater than or equal to 3.
N

###

protocol.text: Intrinsic clearance in human liver microsomes after 30 mins by LC/MS/MS analysis
Assay type: ADME
condition.details: read-out: CLH
metric: microsomal CLint (µL/min/mg)
Your answer should be a plain number; it is taken to be in µL/min/mg.

Tell me its microsomal CLint given `CC(=O)Nc1cc(S(=O)(=O)Nc2ccc(F)cc2F)cc2c1N(CCc1ccccc1)CC2` as the entry.
101

###

Species: Mus musculus
protocol.text: Intrinsic clearance in mouse liver microsomes after 30 mins by LC/MS/MS analysis
condition.details: read-out: CLH
metric: microsomal CLint (µL/min/mg)
Dear colleague, please return just the value in µL/min/mg, with no unit written.

// fetch microsomal CLint given entry `CC(=O)Nc1cc(S(=O)(=O)Nc2ccc(F)cc2F)cc2c1N(CCc1ccccc1)CC2`
220

###

protocol.text: AUC (0 to 8 hrs) in mouse at 1 mg/kg, po by cassette dosing assay
Assay type: ADME, organism-based
Parameters: time < 8 hr, dose 1 mg/kg, route oral
condition.details: in vivo
metric: AUC(0-t) at 8 h (ng·h/mL)
All answers are understood in ng·h/mL, so give the number only.

Indicate its recorded AUC(0-t) at 8 h; the compound in question is `CC(=O)Nc1cc(S(=O)(=O)Nc2ccc(F)cc2F)cc2c1N(CCc1ccccc1)CC2`
9.2

###

protocol.text: 1-Octanol-phosphate buffer partition coefficient, log D of the compound at pH 7.4 by HPLC system
Type: physicochemical
Collected logD values appear next to each entry.
Form field (numeric): enter value without unit.

// known answers, use as guide
>  <mol>
O=C1NCCN1c1cc(S(=O)(=O)Nc2ccc(F)cc2F)cc2c1N(C(=O)Nc1ccc(C(F)(F)F)cc1)CC2

>  <observed.measurement>
2.5

$$$$
>  <mol>
CC(=O)Nc1cc(S(=O)(=O)Nc2ccc(F)cc2F)cc2c1N(CCc1ccccc1)CC2

>  <observed.measurement>
2.5

$$$$
>  <mol>
COc1ccc(NS(=O)(=O)c2cc3c(c(NC(C)=O)c2)N(CCc2ccccc2)CC3)cc1

>  <observed.measurement>
2.2

$$$$

Now for a further compound.
For the compound `O=C1NCCN1c1cc(S(=O)(=O)Nc2ccc(F)cc2F)cc2c1N(C(=O)OCc1ccccc1)CC2` , give its reported logD.
2.3
